These measurements were taken from paper PMC7531004.

The reader will find reported cell viability/% values listed item by item below.
Tested on: P388 mouse leukemia cells
Conditions: 92 h
Method: Each type of assay must be simplified and miniaturized to assess the activities of the library peptides in a 96-well format for the high-throughput screening. […] Mammalian cytotoxicity assay of bead-derived peptides . P388 cells were obtained from Institute of […] for 92 h, the numbers of viable cells were determined by […] at 37 °C. The absorbance of each well at 415 nm was measured using a Benchmark microplate reader (Bio-Rad). The cytotoxicities were evaluated as cell viability (%). […]
Where a SMILES comes first, the peptide text is derived from it. [ ]: non-standard residue; d: D form. The star is where a group is joined. NHCH2CH2OH = OCCN*; For = O=C*
Number only, in %; omit the unit.

CC(C)C[C@@H](NC(=O)[C@H](C)NC(=O)[C@H](NC(=O)[C@H](C)NC(=O)CNC(=O)[C@@H](NC=O)C(C)C)C(C)C)C(=O)N[C@H](C(=O)N[C@@H](C(=O)N[C@@H](Cc1c[nH]c2ccccc12)C(=O)N[C@@H](C(=O)N[C@@H](Cc1c[nH]c2ccccc12)C(=O)N[C@H](CC(C)C)C(=O)N[C@@H](Cc1c[nH]c2ccccc12)C(=O)N[C@@H](C(=O)N[C@@H](Cc1c[nH]c2ccccc12)C(=O)NCCO)C(C)C)C(C)C)C(C)C)C(C)C [compound 12950] (For-VGA[dV]A[dL]V[dV]W[dV]W[dL]W[dV]W-NHCH2CH2OH)    97.0

The record that follows has no cell viability/% shown yet.
Q. Given the molecule CNC(=O)C[C@@H](NC(=O)[C@@H](NC(=O)[C@@H](CC(C)C)NC(=O)[C@H](C)NC(=O)[C@@H](CC(C)C)NC(=O)[C@H](C)NC(=O)CNC(=O)[C@@H](NC=O)C(C)C)C(C)C)C(=O)N[C@@H](Cc1c[nH]c2ccccc12)C(=O)N[C@H](CC(C)C)C(=O)N[C@@H](Cc1c[nH]c2ccccc12)C(=O)N[C@@H](C(=O)N[C@@H](Cc1c[nH]c2ccccc12)C(=O)N[C@H](CC(C)C)C(=O)N[C@@H](Cc1c[nH]c2ccccc12)C(=O)NCCO)C(C)C [compound 1479] (For-VGA[dL]A[dL]V[dD](NHMe)W[dL]W[dV]W[dL]W-NHCH2CH2OH) , what is its reported cell viability/%?
A. 100.0
